Test system: L. acidophilus NCFM
procedureDetails: RNA-seq transcriptional analysis of L. acidophilus NCFM growing on plant glycosides
Type: cell-based, Lactobacillus acidophilus
studyConditions: LBA1436 Glycerol uptake facilitator protein, COG G
measuredQuantity: Transcripts per million (rpm)
Give bare numbers, in rpm.

These recorded examples may help you get a feel for the data.
N#C[C@H](O[C@@H]1O[C@H](CO[C@@H]2O[C@H](CO)[C@@H](O)[C@H](O)[C@H]2O)[C@@H](O)[C@H](O)[C@H]1O)c1ccccc1 [Amygdalin] :: 328.8
OC[C@H]1O[C@@H](O[C@H]2[C@H](O)[C@@H](O)[C@@H](O)O[C@@H]2CO)[C@H](O)[C@@H](O)[C@H]1O [Lac] :: 37

Count: 2. Required value per item: Transcripts per million (rpm).
1. O=c1ccc2cc(O[C@@H]3O[C@H](CO)[C@@H](O)[C@H](O)[C@H]3O)c(O)cc2o1 [Esculin]
2. OCc1ccccc1O[C@@H]1O[C@H](CO)[C@@H](O)[C@H](O)[C@H]1O [Salicin]

[84.9, 37.6]
